System: Saccharomyces cerevisiae
procedure_details: protein stability index of tFT-peptide fusion (C-terminal peptide) (PSI (0-1 scale)); higher = more stable (slower turnover)
protocol_conditions: genetic background: wild type; temperature: 30 C
measure: protein stability index

Example cases with answers are listed next.
{"seq": "PPSVPTPCPVPI", "target_system": "Saccharomyces cerevisiae", "result": 0.696}
{"seq": "GFVPWVCGVRMS", "target_system": "Saccharomyces cerevisiae", "result": 0.689}
{"seq": "TPSLPAPGPPSP", "target_system": "Saccharomyces cerevisiae", "result": 0.735}
{"seq": "LWVESRFVQTFL", "target_system": "Saccharomyces cerevisiae", "result": 0.666}

Exam item: So what does the record say about protein stability index for "SCLWRGHDTVWL" ?
Marked response: 0.662

Exam item: Name the recorded protein stability index for "SPPSPYPPPLDR" .
Marked response: 0.695

Exam item: Request the reported protein stability index associated with "PRSSPPPPPPPP"
Marked response: 0.681

Exam item: Looking for the measured protein stability index of "PALLLFLRNLLL" , can you help?
Marked response: 0.447

* * *

The reader will find reported protein stability index values listed item by item below.
Tested on: Saccharomyces cerevisiae
procedure_details: protein stability index of tFT-peptide fusion in deletion strain of DOA10 (PSI (0-1 scale)); higher = more stable (slower turnover)
Please reply with the number alone, leaving off any unit.

These solved cases illustrate the format of a correct answer.
{"seq": "AITLPECPLLLR", "result_number": 0.677}
{"seq": "AITLPMCPLLLRI", "result_number": 0.485}
{"seq": "RSLRVLEPLYFR", "result_number": 0.69}
{"seq": "RVTRLDAIPFRI", "result_number": 0.724}

// next item, protein stability index requested
Exam item: Suppose we examine the sequence "RVTRLDAIYFRIS" ; what protein stability index value has been reported?
Marked response: 0.271

* * *

System: Saccharomyces cerevisiae
procedure_details: protein stability index of tFT-peptide fusion (C-terminal peptide) (PSI (0-1 scale)); higher = more stable (slower turnover)
protocol_conditions: genetic background: wild type; temperature: 30 C
So basically: protein stability index at 0.7 or higher? That is True. Lower than 0.7? That is False.

Illustrative cases are given below, each with its answer.
{"seq": "RLRPVLSPHAPI", "category_label": "False"}
{"seq": "KQFGIHSRVFLM", "category_label": "False"}
{"seq": "YFSQPLGPSPLL", "category_label": "True"}

Now take the following sequence into account.
Exam item: Can "SLFMRLPLQSSF" be said to have protein stability index at or above 0.7?
Marked response: False

* * *

Tested on: Saccharomyces cerevisiae
procedure_details: protein stability index of tFT-peptide fusion (C-terminal peptide) (PSI (0-1 scale)); higher = more stable (slower turnover)
protocol_conditions: genetic background: wild type; temperature: 30 C
The entries below are paired with their reported protein stability index.
Just the number.

// worked examples, protein stability index included
{"seq": "LVQTREKIELVS", "protein stability index": 0.643}
{"seq": "PPLSCFPLSTRL", "protein stability index": 0.683}
{"seq": "DYLGGGARSEVD", "protein stability index": 0.745}

Exam item: Tell me reported protein stability index for "SLESRGLRSRHY" , tested with Saccharomyces cerevisiae.
Marked response: 0.633

Exam item: Notebook: pull reported protein stability index for Saccharomyces cerevisiae, entry "RFKLEKIKHKKK"
Marked response: 0.755

Exam item: Lab request: please report protein stability index under test system Saccharomyces cerevisiae for "VLGLGVVACWAV"
Marked response: 0.569

Exam item: Lab request: please report protein stability index under test system Saccharomyces cerevisiae for "RCGRVEKRIGRV"
Marked response: 0.756

Exam item: // lookup protein stability index | system=Saccharomyces cerevisiae | key= "VGGACGLSGGLV"
Marked response: 0.652
